These data points were gathered from PubChem BioAssay (NCI).

test system: SN12C renal; test: NCI tumour cell line growth inhibition, 48 h
Observable: TGI

Record excerpt, results attached:
Compound: CC(C)(C)c1ccc2c(c1)OCc1n[nH]c(n1)COc1cc(C(C)(C)C)ccc1OCCOCCO2
Result Value: 16.7 µM
//
Compound: FC(F)(F)c1ccc2c(Nc3cccc(C4CC(c5ccccc5)=NN4c4ccc(Cl)cc4)c3)ccnc2c1 (configuration not stated)
Result Value: 14.6 µM
//
Compound: C[C@H]1CCC/C=C/[C@@H]2C[C@H](N)C[C@H]2[C@H](O)/C=C/C(=O)O1
Result Value: > 100 µM

QUERY: Please give the measured TGI for this compound: CCN(CC)CCCNc1ccc([N+](=O)[O-])c2nc3ccc(OC)cc3c(NCCCN(CC)CC)c12
RESULT: 5.89 µM

QUERY: Please give the measured TGI for this compound: CNC(=O)c1cn(C[C@H](F)CCc2ccc(NC(=O)Cc3cc(OC4CC(F)(F)C4)cc(C)n3)nn2)nn1
RESULT: > 100 µM

QUERY: Please give the measured TGI for this compound: O=C1NN=C(c2c[nH]c3ccccc23)CC1NCc1ccccc1 (configuration not stated)
RESULT: > 100 µM

QUERY: Please give the measured TGI for this compound: Brc1ccc2c(c1)-c1nc3c(cc1CC2)CCc1ccc(Br)cc1-3
RESULT: > 100 µM

QUERY: Please give the measured TGI for this compound: Cc1c(C(=O)NN)nnn1-c1ccnc2c(C(F)(F)F)cccc12
RESULT: > 100 µM

QUERY: Please give the measured TGI for this compound: Cc1noc(C)c1-c1ccc2[nH]c(=O)n3c2c1OC[C@@H]3c1ccccn1
RESULT: > 100 µM

QUERY: Please give the measured TGI for this compound: Cc1cc(C)nc(NS(=O)(=O)c2ccc(Nc3c4ccccc4nc4c(C(=O)NCCO)cccc34)cc2)n1
RESULT: > 100 µM

====

test system: SNB-75 CNS; test: NCI tumour cell line growth inhibition, 48 h
This listing pairs compounds with measured GI50.

Record excerpt, results attached:
Smiles Entry: CN1CCN(Cc2ccc(NC(=O)c3ccc(C(C)(C)C)c(C#Cc4cnc5cccnn45)c3)cc2C(F)(F)F)CC1
Observable: GI50
Result Value: 1.59 µM
--
Smiles Entry: O=C(Nc1cc(-c2ccccc2)[nH]n1)c1ccc(Cl)cc1
Observable: GI50
Result Value: 17.7 µM
--
Smiles Entry: CCCSc1cc(Cl)nc(N)n1
Observable: GI50
Result Value: 90.1 µM
--
Smiles Entry: CCCNCc1cc(C)cc2c1nc(N1CCNCC1)n2Cc1cc(C)c(F)c(C)c1
Observable: GI50
Result Value: 12.1 µM
--
Smiles Entry: CNC(=O)c1ccc(-c2cnc3ncc(Cc4ccc5ncccc5c4)n3n2)cc1F
Observable: GI50
Result Value: 12.7 µM

QUERY: Param readout= GI50; system= SNB-75 CNS; entry= Oc1ccc(Cc2ccccc2)c2cccnc12 ; returns value.
RESULT: 14.7 µM

QUERY: Param readout= GI50; system= SNB-75 CNS; entry= COc1ccc(NC2=C(Br)C(=O)C(C)=C(C)C2=O)cc1 ; returns value.
RESULT: 11 µM

QUERY: Param readout= GI50; system= SNB-75 CNS; entry= CC(=O)[CH-]C(C)=O.CC(=O)[CH-]C(C)=O.N=CC=N.[Sn+2] ; returns value.
RESULT: 3.7 µM

QUERY: Param readout= GI50; system= SNB-75 CNS; entry= Nc1nc(Nc2ccc(OCc3cccc(F)c3)cc2)c2c(n1)[nH]c1ccc(O)cc12 ; returns value.
RESULT: 1.53 µM

QUERY: Param readout= GI50; system= SNB-75 CNS; entry= COc1ccc(-c2cc(-c3cc(Cl)ccc3Cl)nc3nc(=S)[nH]c(N)c23)cc1 ; returns value.
RESULT: 82.7 µM

====

tested on: NCI-H226 lung; assay: NCI tumour cell line growth inhibition, 48 h
Quick rule for you: TGI at 2 µM or higher means MET, lower means NOT MET.

Compound: CC1(C)[C@@H]2C[C@H]1c1cnc(-c3ccccn3)cc1[C@H]2C(O)[C@@H]1c2cc(-c3ccccn3)ncc2[C@H]2C[C@@H]1C2(C)C (some centres not stated)
Target Or System: NCI-H226 lung
Assigned Label: NOT MET

QUERY: Assess whether reported TGI for CN1c2ccccc2C(=O)NC12CCN(CC1COc3ccccc3O1)CC2 (configuration not stated) sits at 2 µM or higher.
RESULT: MET

QUERY: Assess whether reported TGI for COC(=O)[C@H]1C=C[C@H](OC2OC(COC(C)=O)C(OC(C)=O)C(OC(C)=O)C2OC(C)=O)n2c(=O)n(-c3ccccc3)c(=O)n21 (some centres not stated) sits at 2 µM or higher.
RESULT: MET

QUERY: Assess whether reported TGI for O=c1c(Cc2ccccc2)c(-c2ccccc2)[nH]n1C1=NCCN1 sits at 2 µM or higher.
RESULT: MET

QUERY: Assess whether reported TGI for CN1CCN(C)C1c1cccc(C2N(C)CCN2C)c1 sits at 2 µM or higher.
RESULT: MET

QUERY: Assess whether reported TGI for CCOC(=O)Cc1nc(/C(C#N)=C/c2ccco2)[nH]c(=O)c1C#N sits at 2 µM or higher.
RESULT: MET

====

tested on: DU-145 prostate; experiment: NCI tumour cell line growth inhibition, 48 h
Observable: TGI

Record excerpt, results attached:
Molecule: Cc1cc2c(cc1Cl)SC(NNc1cnc3ccccc3n1)=NS2(=O)=O
Target Or System: DU-145 prostate
TGI: > 100 µM
--
Molecule: Clc1ccc(OCc2nnc3n2N=C(c2ccc(Cl)cc2Cl)CS3)c(Cl)c1
Target Or System: DU-145 prostate
TGI: > 100 µM
--
Molecule: N/C(CSCCSC/C(N)=N/O)=N\O
Target Or System: DU-145 prostate
TGI: > 100 µM
--
Molecule: O=[N+]([O-])c1ccc2nc3c(nc2c1)-c1c2ccccc2cc2cccc-3c12
Target Or System: DU-145 prostate
TGI: > 100 µM
--
Molecule: Clc1cccc(C2ON=C(c3ccccc3)N2C23CC4CC(CC(C4)C2)C3)c1Cl (stereo not given)
Target Or System: DU-145 prostate
TGI: > 10 µM
--
Molecule: O=C(N/N=C/c1ccc(Cl)cc1Cl)c1ccccc1Nc1cccc(C(F)(F)F)c1
Target Or System: DU-145 prostate
TGI: 38.7 µM
--
Molecule: COc1cc(-c2cn(C)c(=O)c(C)c2C)cc(OC)c1CN1CC[C@H](N2CCN(c3ccc(N[C@H]4CCC(=O)NC4=O)cc3F)CC2)C(F)(F)C1
Target Or System: DU-145 prostate
TGI: > 100 µM
--
Molecule: Cc1ncc(NC(=O)c2ccc(CN3CCN(C)CC3)c(C(F)(F)F)c2)cc1Nc1nccc(-c2cccnc2)n1
Target Or System: DU-145 prostate
TGI: 30.4 µM

QUERY: Please give the measured TGI for this molecule: CCc1cc(=O)n(/C(C)=C/c2ccccc2)n1C
RESULT: > 100 µM

QUERY: Please give the measured TGI for this molecule: Nc1nc(Nc2ccc(OCc3cccc(F)c3)cc2)c2c(n1)[nH]c1ccc(O)cc12
RESULT: 15.6 µM

====

system: SNB-75 CNS; assay: NCI tumour cell line growth inhibition, 48 h
This listing pairs compounds with measured TGI.

Compound: O=c1c2cc3c(=O)n(CCc4ccccc4CO)c(=O)c3cc2c(=O)n1CCc1ccccc1CO
TGI: > 100 µM
--
Compound: COc1ccc(-c2cc(-c3cc(Cl)ccc3Cl)nc3nc(=S)[nH]c(N)c23)cc1
TGI: > 100 µM

Consider the additional compound presented here.
QUERY: Please give the measured TGI for this compound: COC(=O)C(CCCCNC(=O)CNC(=O)OCc1ccccc1)NC(=O)C(CCCCNC(=O)CNC(=O)OCc1ccccc1)NC(=O)OCc1ccccc1 (stereo not drawn)
RESULT: > 100 µM

====

test system: TK-10 renal; assay: NCI tumour cell line growth inhibition, 48 h
This listing pairs molecules with measured TGI.

Molecule: O=c1c(Cc2ccccc2)c(-c2ccccc2)[nH]n1C1=NCCN1
TGI: > 100 µM

QUERY: Please give the measured TGI for this molecule: CN(C)c1nc(=NCc2ccccn2)ss1
RESULT: > 10 µM

QUERY: Please give the measured TGI for this molecule: COC(=O)C(CCSC)NC(=O)CSc1nnc(COc2ccc(Cl)cc2)n1-c1ccccc1 (stereo unspecified)
RESULT: 33.3 µM

QUERY: Please give the measured TGI for this molecule: O=C1NN=C(c2c[nH]c3ccccc23)CC1NCc1ccccc1 (stereo unspecified)
RESULT: > 100 µM

QUERY: Please give the measured TGI for this molecule: CCCSc1cc(Cl)nc(N)n1
RESULT: > 100 µM

QUERY: Please give the measured TGI for this molecule: O=c1cc(-c2ccccc2F)[nH]c2cc3c(cc12)OCO3
RESULT: 98.2 µM
